tested on: HeLa cell; experiment: Cell penetration of pep(CPP)-FITC conjugate in HeLa cell line, flow cytometry (FACS); assay type: cell-based, Homo sapiens; conditions: HeLa cells, 20 uM FITC-fused peptide, 37° C. for an hour, control = FITC only
measure: cellular uptake, MFI (Mean Fluorescence Intensity)
In your answer, state the number alone without any accompanying words.

Example results:
[[record]]
substance = "PALLTSRLRFIP (listed as Homo sapiens) [Pep-RIA-130]"
recorded_number = 18.54

[[record]]
substance = "EARPALLTSRLRFIPKPDGLRPIVN (listed as Homo sapiens) [Pep-RIA-72]"
recorded_number = 21.7

[[record]]
substance = "RQHREARPALLTSRLRFIPKPDGL (listed as Homo sapiens) [Pep-RIA-27]"
recorded_number = 19.69

[[record]]
substance = "VRQHREARPALLTSRLRFIPKPDGLRP (listed as Homo sapiens) [Pep-RIA-46]"
recorded_number = 15.35

[[record]]
substance = "EARPALLTSRLRF (listed as Homo sapiens) [Pep-RIA-80]"
recorded_number = 14.7

[[record]]
substance = "RQHREARPALLTSRLRFIPK (listed as Homo sapiens) [Pep-RIA-4]"
recorded_number = 27.25

[[record]]
substance = "ARPALLTSRLR (listed as Homo sapiens) [Pep-RIA-112]"
recorded_number = 15.96

[[record]]
substance = "EARPALL (listed as Homo sapiens) [Pep-RIA-86]"
recorded_number = 9.95


Now for the substance whose cellular uptake, MFI (Mean Fluorescence Intensity) we want.
// query Return the recorded cellular uptake, MFI (Mean Fluorescence Intensity) value; entry: RPALLTSRLRFI (listed as Homo sapiens) [Pep-RIA-105]
// result 19.4

---

tested on: HeLa cell; experiment: Cell penetration of pep(CPP)-FITC conjugate in HeLa cell line, flow cytometry (FACS); type: cell-based, Homo sapiens; details: HeLa cells, 20 uM FITC-fused peptide, 37° C. for an hour, control = FITC only
measure: cellular uptake, MFI (Mean Fluorescence Intensity)

Example results:
[[record]]
substance = "SRLRFIP (listed as Homo sapiens) [Pep-RIA-165]"
result = "5.75 ± 0.41"

[[record]]
substance = "EARPALLTSRL (listed as Homo sapiens) [Pep-RIA-82]"
result = "10.12 ± 0.95"

[[record]]
substance = "EARPALLTSRLRFIPKPDGLRPIVNMDY (listed as Homo sapiens) [Pep-RIA-75]"
result = "26.21 ± 1.29"

[[record]]
substance = "RELSEAEVRQHREARPALLTSRLRFIPK (listed as Homo sapiens) [Pep-RIA-12]"
result = "12.93 ± 0.18"

[[record]]
substance = "PALLTSRLRFI (listed as Homo sapiens) [Pep-RIA-131]"
result = "13.66 ± 0.87"

[[record]]
substance = "RQHREARPALLTSRLRFIPKPDGLRP (listed as Homo sapiens) [Pep-RIA-47]"
result = "17.6 ± 0.82"


// query Return the recorded cellular uptake, MFI (Mean Fluorescence Intensity) value; entry: REARPALLTSRLRFIPK (listed as Homo sapiens) [Pep-RIA-1]
// result 24.3 ± 0.61

// query Return the recorded cellular uptake, MFI (Mean Fluorescence Intensity) value; entry: AEVRQHREARPALLTSRLRFIPKPD (listed as Homo sapiens) [Pep-RIA-52]
// result 15.49 ± 0.29

// query Return the recorded cellular uptake, MFI (Mean Fluorescence Intensity) value; entry: RPALLTSRLRFIP (listed as Homo sapiens) [Pep-RIA-121]
// result 20.72 ± 0.33

// query Return the recorded cellular uptake, MFI (Mean Fluorescence Intensity) value; entry: RLRFIPK (listed as Homo sapiens) [Pep-RIA-99]
// result 17.45 ± 0.19

// query Return the recorded cellular uptake, MFI (Mean Fluorescence Intensity) value; entry: HREARPALLTSRLRFIPKPD (listed as Homo sapiens) [Pep-RIA-17]
// result 13.61 ± 0.22

// query Return the recorded cellular uptake, MFI (Mean Fluorescence Intensity) value; entry: VRQHREARPALLTSRLRFIPKPDGLRPI (listed as Homo sapiens) [Pep-RIA-59]
// result 22.69 ± 0.66

// query Return the recorded cellular uptake, MFI (Mean Fluorescence Intensity) value; entry: LLTSRL (listed as Homo sapiens) [Pep-RIA-108]
// result 14.59 ± 0.17

// query Return the recorded cellular uptake, MFI (Mean Fluorescence Intensity) value; entry: EVRQHREARPALLTSRLRFIPKPDGLRP (listed as Homo sapiens) [Pep-RIA-45]
// result 14.23 ± 1.65

// query Return the recorded cellular uptake, MFI (Mean Fluorescence Intensity) value; entry: EARPALLTS (listed as Homo sapiens) [Pep-RIA-84]
// result 10.32 ± 0.49

// query Return the recorded cellular uptake, MFI (Mean Fluorescence Intensity) value; entry: ARPALLTS (listed as Homo sapiens) [Pep-RIA-115]
// result 12.13 ± 0.34

// query Return the recorded cellular uptake, MFI (Mean Fluorescence Intensity) value; entry: EARPALLTSRLRFIPKPDGLRPIVNM (listed as Homo sapiens) [Pep-RIA-73]
// result 24.33 ± 0.89

// query Return the recorded cellular uptake, MFI (Mean Fluorescence Intensity) value; entry: ALLTSRLRF (listed as Homo sapiens) [Pep-RIA-140]
// result 21.18 ± 0.11

// query Return the recorded cellular uptake, MFI (Mean Fluorescence Intensity) value; entry: VRQHREARPALLTSRLRFIPK (listed as Homo sapiens) [Pep-RIA-5]
// result 20.24 ± 0.34
